- targetUnderTest: T1, recombinant human IL-23 (human, UniProt Q9NPF7 20-189; P29460 23-328)
- T1 construct: also called hIL-23
- T1 sequence 1: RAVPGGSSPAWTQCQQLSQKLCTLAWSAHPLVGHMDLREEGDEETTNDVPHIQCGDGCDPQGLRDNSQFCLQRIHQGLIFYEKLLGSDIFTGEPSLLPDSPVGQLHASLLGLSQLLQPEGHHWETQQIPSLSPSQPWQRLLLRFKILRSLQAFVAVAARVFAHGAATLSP
- T1 sequence 2: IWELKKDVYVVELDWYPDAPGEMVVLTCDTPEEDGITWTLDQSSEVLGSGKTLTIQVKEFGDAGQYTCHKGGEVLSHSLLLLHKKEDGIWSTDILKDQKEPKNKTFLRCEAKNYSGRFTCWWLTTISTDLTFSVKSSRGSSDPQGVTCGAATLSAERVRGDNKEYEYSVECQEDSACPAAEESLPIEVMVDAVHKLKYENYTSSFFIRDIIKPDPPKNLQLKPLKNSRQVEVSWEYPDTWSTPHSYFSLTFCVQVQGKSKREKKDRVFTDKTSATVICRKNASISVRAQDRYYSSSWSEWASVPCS
- testDetails: SPR (Biacore T100), tissue culture supernatant antibody captured on anti-human IgG, IL-23 analyte
Kindly state kon for each of the entries shown.
Give bare numbers, in M⁻¹ s⁻¹.

binder="A12M3 (antibody, V domains shown) VH: QVQLVQSGAEVKKPGSSVKVSCKASGYTFASYGITWVRQAPGQGLEWMGENYPRSGNTYYNEKFKGRVTITADKSTSTAYMELSSLRSEDTAMYYCARVEFISTVVAPYYYALDYWGQGTLVTVSS VL: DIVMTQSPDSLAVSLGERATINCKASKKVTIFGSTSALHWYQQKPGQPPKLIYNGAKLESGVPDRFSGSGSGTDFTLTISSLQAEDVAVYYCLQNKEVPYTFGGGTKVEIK" measurednumber=2.54e+06

Qu. // returns reported kon for input A10M3 (antibody, human IgG1, kappa, V domains shown, Full length chains) VH: QVQLVQSGAEVKKPGSSVKVSCKASGYTFASYGITWVRQAPGQGLEWMGENYPRSGNTYYNEKFKGRVTITADKSTSTAYMELSSLRSEDTAMYYCARSEFISTVVAPYYYALDYWGQGTLVTVSS VL: DIVMTQSPDSLAVSLGERATINCKASKKVTIFGSTSALHWYQQKPGQPPKLIYNGAKLESGVPDRFSGSGSGTDFTLTISSLQAEDVAVYYCLQNKEVPYTFGGGTKVEIKR
Ans. 1.11e+06
